Tested on: OACp4C (Esophageal Adenocarcinoma)
method summary: Bliss excess, mean over the matrix (fraction); higher = more synergy
quantity: Bliss excess
Answer with the value's number alone.

{"compound": "Cc1c2c(nn1C)CSCc1cc(n(C)n1)CSc1cc(c3ccccc3c1)OCCCc1c(C(=O)O)n(C)c3c-2c(Cl)ccc13 [AZD5991] + C=CCn1c(=O)c2cnc(Nc3ccc(N4CCN(C)CC4)cc3)nc2n1-c1cccc(C(C)(C)O)n1 [AZD1775] (first compound max 1 µM, partner max 1 µM)", "quantitative readout": 0.0186}

// query Bliss excess value for entry C[C@@H](c1ccc2nccn2c1)n1nnc2ncc(-c3cnn(C)c3)nc21 [Savolitinib] + CC1(C)CCC(CN2CCN(c3ccc(C(=O)NS(=O)(=O)c4ccc(NCC5CCOCC5)c([N+](=O)[O-])c4)c(Oc4cnc5[nH]ccc5c4)c3)CC2)=C(c2ccc(Cl)cc2)C1 [Venetoclax] (first compound max 1 µM, 7x7, partner max 1 µM) -0.0367

---

System: TE-10 (Esophageal Squamous Cell Carcinoma)
method summary: combination Emax (second highest fraction inhibited in the dose matrix, 72 h); higher = more inhibition; extreme values may be limits of the assay
quantity: combination Emax
Answer with the value's number alone.

Record excerpt, results attached:
{"molecule": "Cc1c2c(nn1C)CSCc1cc(n(C)n1)CSc1cc(c3ccccc3c1)OCCCc1c(C(=O)O)n(C)c3c-2c(Cl)ccc13 [AZD5991] + C[C@@H]1COCCN1C2=NC(=NC(=C2)C3(CC3)[S@](=N)(=O)C)C4=C5C=CNC5=NC=C4 [AZD6738] (first compound max 1 µM, 7x7, partner max 10 µM)", "quantitative readout": 0.901}
{"molecule": "COc1cccc(OCCCN)c1-c1cc(Nc2cnc(C#N)cn2)n[nH]1 [Prexasertib] + CN(C)CCCOc1ccc(-c2ccc3ncc4c(c3c2)n(C2CCOCC2)c(=O)n4C)cn1 [AZD0156] (first compound max 1 µM, 7x7, partner max 1 µM)", "quantitative readout": 0.938}

API: value(readout= combination Emax, system= TE-10 (Esophageal Squamous Cell Carcinoma), query= CC1(C)CCC(CN2CCN(c3ccc(C(=O)NS(=O)(=O)c4ccc(NCC5CCOCC5)c([N+](=O)[O-])c4)c(Oc4cnc5[nH]ccc5c4)c3)CC2)=C(c2ccc(Cl)cc2)C1 [Venetoclax] + Cc1cc2ncnn2cc1Nc1ncc2c(n1)n(C1CCOCC1)c(=O)n2C [AZD7648] (first compound max 1 µM, 7x7, partner max 10 µM) ) 0.477

API: value(readout= combination Emax, system= TE-10 (Esophageal Squamous Cell Carcinoma), query= COc1cc2c(cc1OCCCCCOc1cc3c(cc1OC)C(=O)N1C=C(C)C[C@H]1C=N3)N=C[C@@H]1CC(C)=CN1C2=O [SG3199] + O=C(c1cc(Cc2n[nH]c(=O)c3ccccc23)ccc1F)N1CCN(C(=O)C2CC2)CC1 [Olaparib] (first compound max 0.001 µM, 7x7, partner max 10 µM) ) 0.107

---

Tested on: NB13 (Neuroblastoma)
method summary: Bliss excess, mean over the matrix (fraction); higher = more synergy
Recorded measurements of Bliss excess, one per entry
Answer with the value's number alone.

Record excerpt, results attached:
{"compound": "CC1(C)CCC(CN2CCN(c3ccc(C(=O)NS(=O)(=O)c4ccc(NCC5CCOCC5)c([N+](=O)[O-])c4)c(Oc4cnc5[nH]ccc5c4)c3)CC2)=C(c2ccc(Cl)cc2)C1 [Venetoclax] + Cn1cnc2c(F)c(Nc3ccc(Br)cc3Cl)c(C(=O)NOCCO)cc21 [Selumetinib] (first compound max 1 µM, 7x7, partner max 3 µM)", "Bliss excess": -0.0837}
{"compound": "CC1(C)CCC(CN2CCN(c3ccc(C(=O)NS(=O)(=O)c4ccc(NCC5CCOCC5)c([N+](=O)[O-])c4)c(Oc4cnc5[nH]ccc5c4)c3)CC2)=C(c2ccc(Cl)cc2)C1 [Venetoclax] + Cc1cc2ncnn2cc1Nc1ncc2c(n1)n(C1CCOCC1)c(=O)n2C [AZD7648] (first compound max 1 µM, 7x7, partner max 10 µM)", "Bliss excess": 0.0559}
{"compound": "CCN(CCO)CCCOc1ccc2c(Nc3cc(CC(=O)Nc4cccc(F)c4)[nH]n3)ncnc2c1 [AZD2811] + O=C(c1cc(Cc2n[nH]c(=O)c3ccccc23)ccc1F)N1CCN(C(=O)C2CC2)CC1 [Olaparib] (first compound max 1 µM, 7x7, partner max 10 µM)", "Bliss excess": 0.0211}
{"compound": "COc1nnc2ccc(N3CCC(c4ccc(OCCN5CCN(C)C(=O)[C@H]5C)cc4)CC3)nn12 [AZD5153] + Cc1c2c(nn1C)CSCc1cc(n(C)n1)CSc1cc(c3ccccc3c1)OCCCc1c(C(=O)O)n(C)c3c-2c(Cl)ccc13 [AZD5991] (first compound max 1 µM, 7x7, partner max 1 µM)", "Bliss excess": 0.0066}
{"compound": "NC1(C(=O)N[C@@H](CCO)c2ccc(Cl)cc2)CCN(c2ncnc3[nH]ccc23)CC1 [Capivasertib] + Cn1cnc2c(F)c(Nc3ccc(Br)cc3Cl)c(C(=O)NOCCO)cc21 [Selumetinib] (first compound max 10 µM, 7x7, partner max 10 µM)", "Bliss excess": -0.0062}

API: value(readout= Bliss excess, system= NB13 (Neuroblastoma), query= Cn1cnc2c(F)c(Nc3ccc(Br)cc3Cl)c(C(=O)NOCCO)cc21 [Selumetinib] + CCN(CCO)CCCOc1ccc2c(Nc3cc(CC(=O)Nc4cccc(F)c4)[nH]n3)ncnc2c1 [AZD2811] (first compound max 10 µM, 7x7, partner max 1 µM) ) -0.0829

API: value(readout= Bliss excess, system= NB13 (Neuroblastoma), query= COc1cccc(OCCCN)c1-c1cc(Nc2cnc(C#N)cn2)n[nH]1 [Prexasertib] + C[C@@H]1COCCN1C2=NC(=NC(=C2)C3(CC3)[S@](=N)(=O)C)C4=C5C=CNC5=NC=C4 [AZD6738] (first compound max 1 µM, 7x7, partner max 10 µM) ) -0.0603

---

Tested on: Jurkat (T-Lymphoblastic Leukemia)
method summary: Bliss excess, mean over the matrix (fraction); higher = more synergy
Recorded measurements of Bliss excess, one per entry
Answer with the value's number alone.

Record excerpt, results attached:
{"compound": "C=CCn1c(=O)c2cnc(Nc3ccc(N4CCN(C)CC4)cc3)nc2n1-c1cccc(C(C)(C)O)n1 [AZD1775] + C1CN(CCC1(C(=O)N[C@@H](CCO)C2=CC=C(C=C2)Cl)N)C3=NC=NC4=C3C=CN4 [Capivasertib] (first compound max 3 µM, partner max 3 µM)", "Bliss excess": 0.185}
{"compound": "C[C@@H](c1ccc2nccn2c1)n1nnc2ncc(-c3cnn(C)c3)nc21 [Savolitinib] + CC1(C)CCC(CN2CCN(c3ccc(C(=O)NS(=O)(=O)c4ccc(NCC5CCOCC5)c([N+](=O)[O-])c4)c(Oc4cnc5[nH]ccc5c4)c3)CC2)=C(c2ccc(Cl)cc2)C1 [Venetoclax] (first compound max 1 µM, 7x7, partner max 1 µM)", "Bliss excess": -0.0723}

Now examine the next entry.
// query Bliss excess value for entry CN(CCO)CC[C@H](CSc1ccccc1)Nc1ccc(S(=O)(=O)NC(=O)c2ccc(N3CCC([C@@H](O)c4ccccc4-c4ccc(Cl)cc4)CC3)cc2)cc1S(=O)(=O)C(F)(F)F [AZD4320] + C1CN(CCC1(C(=O)N[C@@H](CCO)C2=CC=C(C=C2)Cl)N)C3=NC=NC4=C3C=CN4 [Capivasertib] (first compound max 1 µM, 7x7, partner max 3 µM) -0.0203

---

Test system: NCI-H1651 (Lung Adenocarcinoma)
method summary: Bliss excess, mean over the matrix (fraction); higher = more synergy
quantity: Bliss excess
Answer with the value's number alone.

Record excerpt, results attached:
{"molecule": "CC1(C)CCC(CN2CCN(c3ccc(C(=O)NS(=O)(=O)c4ccc(NCC5CCOCC5)c([N+](=O)[O-])c4)c(Oc4cnc5[nH]ccc5c4)c3)CC2)=C(c2ccc(Cl)cc2)C1 [Venetoclax] + CN(C)CCCOc1ccc(-c2ccc3ncc4c(c3c2)n(C2CCOCC2)c(=O)n4C)cn1 [AZD0156] (first compound max 1 µM, 7x7, partner max 1 µM)", "target entity": "NCI-H1651 (Lung Adenocarcinoma)", "quantity": "Bliss excess", "quantitative readout": -0.0174}
{"molecule": "CCN(CCO)CCCOc1ccc2c(Nc3cc(CC(=O)Nc4cccc(F)c4)[nH]n3)ncnc2c1 [AZD2811] + C=CCn1c(=O)c2cnc(Nc3ccc(N4CCN(C)CC4)cc3)nc2n1-c1cccc(C(C)(C)O)n1 [AZD1775] (first compound max 1 µM, partner max 1 µM)", "target entity": "NCI-H1651 (Lung Adenocarcinoma)", "quantity": "Bliss excess", "quantitative readout": -0.0268}
{"molecule": "COc1cccc(OCCCN)c1-c1cc(Nc2cnc(C#N)cn2)n[nH]1 [Prexasertib] + Cc1cc2ncnn2cc1Nc1ncc2c(n1)n(C1CCOCC1)c(=O)n2C [AZD7648] (first compound max 1 µM, 7x7, partner max 10 µM)", "target entity": "NCI-H1651 (Lung Adenocarcinoma)", "quantity": "Bliss excess", "quantitative readout": -0.132}
{"molecule": "CN(CCO)CC[C@H](CSc1ccccc1)Nc1ccc(S(=O)(=O)NC(=O)c2ccc(N3CCC([C@@H](O)c4ccccc4-c4ccc(Cl)cc4)CC3)cc2)cc1S(=O)(=O)C(F)(F)F [AZD4320] + C=CCn1c(=O)c2cnc(Nc3ccc(N4CCN(C)CC4)cc3)nc2n1-c1cccc(C(C)(C)O)n1 [AZD1775] (first compound max 1 µM, partner max 1 µM)", "target entity": "NCI-H1651 (Lung Adenocarcinoma)", "quantity": "Bliss excess", "quantitative readout": 0.0154}
{"molecule": "Cc1nc(Nc2ncc(C(=O)Nc3c(C)cccc3Cl)s2)cc(N2CCN(CCO)CC2)n1 [Dasatinib] + CC(=O)Nc1cccc(-n2c(=O)n(C3CC3)c(=O)c3c(Nc4ccc(I)cc4F)n(C)c(=O)c(C)c32)c1 [Trametinib] (first compound max 2 µM, 7x7, partner max 1 µM)", "target entity": "NCI-H1651 (Lung Adenocarcinoma)", "quantity": "Bliss excess", "quantitative readout": -0.042}

// query Bliss excess value for entry O=C(c1cc(Cc2n[nH]c(=O)c3ccccc23)ccc1F)N1CCN(C(=O)C2CC2)CC1 [Olaparib] + COc1nnc2ccc(N3CCC(c4ccc(OCCN5CCN(C)C(=O)[C@H]5C)cc4)CC3)nn12 [AZD5153] (first compound max 10 µM, 7x7, partner max 1 µM) -0.0044

// query Bliss excess value for entry C[C@@H]1COCCN1c1cc(C2([S@](C)(=N)=O)CC2)nc(-c2ccnc3[nH]ccc23)n1 [AZD6738] + O=C(c1cc(Cc2n[nH]c(=O)c3ccccc23)ccc1F)N1CCN(C(=O)C2CC2)CC1 [Olaparib] (first compound max 10 µM, 7x7, partner max 10 µM) 0.0418
